assay_method_text: amyloid nucleation score (Sup35N fusion, yeast selection) (log enrichment); library NNK3; higher = more nucleation; inactive = no reads after selection;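 further: zero at mode of non-aggregating sequences after 7 days selection at 30°C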

{"substance": "FVYTDVCSQFFRMGHFDTSY", "amyloid nucleation score": -0.21}
{"substance": "ITGHSVLCWGNSSSTMCEMG", "amyloid nucleation score": "inactive"}
{"substance": "FYLGRLSVNGRVVQRHNESM", "amyloid nucleation score": "inactive"}
{"substance": "TRMWYGLLAENGCAYLGCNW", "amyloid nucleation score": "inactive"}
{"substance": "YQYPVVDKRMYIFTTMFYFT", "amyloid nucleation score": 2.57}
{"substance": "NSIAYMVWILALDCCNWGSQ", "amyloid nucleation score": 2.85}
{"substance": "IAFATFVVTFIMMEEMFFKN", "amyloid nucleation score": "inactive"}
{"substance": "CFAVWHISVEMYVRDRW", "amyloid nucleation score": "inactive"}
{"substance": "HNQTDSASVIWFSYVWAFVG", "amyloid nucleation score": "inactive"}
{"substance": "YDCWFPHLSECLQLDTIFKA", "amyloid nucleation score": "inactive"}
{"substance": "FTRYRNVFKWTMWFSYFWQA", "amyloid nucleation score": "inactive"}
{"substance": "IVGNLRDKDNYIVGRLEDSD", "amyloid nucleation score": "inactive"}
{"substance": "VIDDHMFQRKRQMVLKKQLN", "amyloid nucleation score": "inactive"}
{"substance": "NSCYTASCS", "amyloid nucleation score": -0.381}
{"substance": "VIFSITANIRAQFLFYCYRV", "amyloid nucleation score": -0.083}
{"substance": "KLDLKCIIRHWV", "amyloid nucleation score": "inactive"}
{"substance": "LFYFVWRVYKFILWSG", "amyloid nucleation score": "inactive"}
{"substance": "TLALSKSMMYQMVINPAIY", "amyloid nucleation score": "inactive"}
{"substance": "ESMLIS", "amyloid nucleation score": "inactive"}
{"substance": "VVLDYVSYAVIHGWEM", "amyloid nucleation score": "inactive"}
{"substance": "VLIMPA", "amyloid nucleation score": "inactive"}
{"substance": "CCNFWRMPMTLCRNSCSSST", "amyloid nucleation score": 0.718}
{"substance": "LYNRQVGKDANSFLYNRASQ", "amyloid nucleation score": "inactive"}
{"substance": "PLAGLELCMRRRWVEE", "amyloid nucleation score": "inactive"}
{"substance": "FDFTGYLKCLKCTSSCTMVL", "amyloid nucleation score": "inactive"}
{"substance": "QMSFQSSYQVRLFLVPPFQW", "amyloid nucleation score": 0.412}
{"substance": "LTHRAVGLSNVNTPPSFCMR", "amyloid nucleation score": 0.842}
{"substance": "DADYLT", "amyloid nucleation score": "inactive"}
{"substance": "HITLKSYARIV", "amyloid nucleation score": "inactive"}
{"substance": "FQNHVSASKVVWHRFNRRKD", "amyloid nucleation score": "inactive"}
{"substance": "HWVLQYRCSARKRSHLRYSM", "amyloid nucleation score": "inactive"}
{"substance": "KCSFFMFAVEKEAKNWMVTN", "amyloid nucleation score": "inactive"}
{"substance": "CYELLESS", "amyloid nucleation score": "inactive"}
{"substance": "RYADHAYLVPKFGQTEQENV", "amyloid nucleation score": "inactive"}
{"substance": "SKMLIWSYLHGGNRCDLSDW", "amyloid nucleation score": "inactive"}
{"substance": "EFGWQL", "amyloid nucleation score": "inactive"}

====

assay_method_text: amyloid nucleation score (Sup35N fusion, yeast selection) (log enrichment); library NNK3; higher = more nucleation; inactive = no reads after selection

{"residue_string": "EFGPVTPGSEPQALLCTRRL", "amyloid nucleation score": "inactive"}
{"residue_string": "ADLRIRSSSCRPSADINFG", "amyloid nucleation score": "inactive"}
{"residue_string": "EQLKTRNRKVWV", "amyloid nucleation score": "inactive"}
{"residue_string": "LDAYDSLLFL", "amyloid nucleation score": "inactive"}
{"residue_string": "PWSLWRTVKSPRKGGEQPRS", "amyloid nucleation score": -0.317}
{"residue_string": "IPVCAWRWSG", "amyloid nucleation score": "inactive"}
{"residue_string": "IPFTENSVPPFKGLTVSSNV", "amyloid nucleation score": "inactive"}
{"residue_string": "KLCDCVMLLFTLDTRIGNVL", "amyloid nucleation score": 0.053}
{"residue_string": "TVTGFTCNGCFHAVNSVVLT", "amyloid nucleation score": 0.002}

====

assay_method_text: amyloid nucleation score (Sup35N fusion, yeast selection) (log enrichment); library NNK2; higher = more nucleation; inactive = no reads after selection
If the reported amyloid nucleation score equals or exceeds -0.4, assign Condition met. If not, assign Condition not met.

{"residue_string": "ACDVNWLMNTIHQNNCCFAH", "answer_label": "Condition not met"}
{"residue_string": "IKCFAMGETFLAKVVHCTCW", "answer_label": "Condition met"}
{"residue_string": "VTYFNVYSYCKYSAKGRCAS", "answer_label": "Condition met"}
{"residue_string": "HKKCSRKKFPAPRPSRTNTS", "answer_label": "Condition not met"}
{"residue_string": "LLGGWESHSRRNVWYAAGLC", "answer_label": "Condition not met"}
{"residue_string": "WDGYGVYFQTQAKVR", "answer_label": "Condition met"}
{"residue_string": "DRNYVQNSSTKMHYWASFLT", "answer_label": "Condition met"}
{"residue_string": "NSFVYGCKCYALTFLRTFLV", "answer_label": "Condition not met"}
{"residue_string": "SGDHDGHEMRILRWSMLRYG", "answer_label": "Condition met"}
{"residue_string": "RVISFIYWSVTGDSDCLLWC", "answer_label": "Condition met"}
{"residue_string": "YGIRYYICKFMLKSFICSWY", "answer_label": "Condition not met"}
{"residue_string": "YRRSPFETSGLQSCYCGSIG", "answer_label": "Condition met"}
{"residue_string": "VTPTFCETLVKPLHALHTNC", "answer_label": "Condition not met"}
{"residue_string": "TCKVRLRHVDYNCIMVLLLM", "answer_label": "Condition met"}

====

assay_method_text: amyloid nucleation score (Sup35N fusion, yeast selection) (log enrichment); library NNK2; higher = more nucleation; inactive = no reads after selection
Kindly return fulfilled if reported amyloid nucleation score is no lower than 0.5; return not fulfilled if it is lower.

{"substance": "VRDNHNRSGQVRGGADLN", "answer_label": "fulfilled"}
{"substance": "HRRVCLDAYTFTFLNMVLAW", "answer_label": "not fulfilled"}
{"substance": "WYSMISLSRTNIYRMFYVPV", "answer_label": "not fulfilled"}
{"substance": "TCYWRGLAGYR", "answer_label": "fulfilled"}
{"substance": "HEEVLLHGLVCKLHRMKR", "answer_label": "not fulfilled"}
{"substance": "DNMSNYSGACLSNYL", "answer_label": "not fulfilled"}
{"substance": "TICWHGFNR", "answer_label": "not fulfilled"}
{"substance": "SDRMLCEGNYCWCVSENVLL", "answer_label": "fulfilled"}
{"substance": "WFLHRGSIGYQTAFFCSYLP", "answer_label": "not fulfilled"}
{"substance": "ANSVNRSKDCTYFVFHRF", "answer_label": "fulfilled"}
{"substance": "NEDLIEKSLFCLAYSLFPTS", "answer_label": "not fulfilled"}
{"substance": "FWSTTDILVGRTSHTGTVCV", "answer_label": "not fulfilled"}
{"substance": "AVDAVGSLMKRALRLRSMFG", "answer_label": "fulfilled"}
{"substance": "WLKVLG", "answer_label": "fulfilled"}
{"substance": "SDLTIVVSMLGFIPCSCHAF", "answer_label": "fulfilled"}
{"substance": "LGNIGRTFMYHS", "answer_label": "fulfilled"}

====

assay_method_text: amyloid nucleation score (Sup35N fusion, yeast selection) (log enrichment); library NNK1; higher = more nucleation; inactive = no reads after selection
Assign class by amyloid nucleation score: not lower than -0.2 means true; lower than -0.2 means false.

{"substance": "EGFITSSMALGLHFVLLGWV", "answer_label": "false"}
{"substance": "QNKVCNCDRVFTRFIESNSL", "answer_label": "false"}
{"substance": "VVLPGYMLNGFPNESNLIWP", "answer_label": "false"}
{"substance": "YLHSSGGYNFSVRVSKYNCE", "answer_label": "false"}
{"substance": "YMGLYWLDRRMICMQLLWTL", "answer_label": "true"}
{"substance": "DWGPTNTFGPYQINNLTCSS", "answer_label": "false"}
{"substance": "FDGVRARDALFSGCL", "answer_label": "false"}
{"substance": "DLMGSWYDLRYMKGLKGK", "answer_label": "false"}
{"substance": "FSSWQGMGKQYWPERIRCAD", "answer_label": "true"}
{"substance": "LVITIDARRVAVTLIYMKMR", "answer_label": "true"}
{"substance": "YVSCFRG", "answer_label": "true"}
{"substance": "TSTRRHYRVFARAQQEQNSP", "answer_label": "true"}
{"substance": "VFADVISIKMNCTLLTSILL", "answer_label": "true"}
{"substance": "HDREDWGDQSWYFILAWIFK", "answer_label": "false"}
